Where do these numbers come from? They come from ChEMBL document CHEMBL4002647.

Assay target: Neuronal acetylcholine receptor subunit alpha-7 (Rattus norvegicus, UniProt Q05941)
Sequence (Q05941 whole entry): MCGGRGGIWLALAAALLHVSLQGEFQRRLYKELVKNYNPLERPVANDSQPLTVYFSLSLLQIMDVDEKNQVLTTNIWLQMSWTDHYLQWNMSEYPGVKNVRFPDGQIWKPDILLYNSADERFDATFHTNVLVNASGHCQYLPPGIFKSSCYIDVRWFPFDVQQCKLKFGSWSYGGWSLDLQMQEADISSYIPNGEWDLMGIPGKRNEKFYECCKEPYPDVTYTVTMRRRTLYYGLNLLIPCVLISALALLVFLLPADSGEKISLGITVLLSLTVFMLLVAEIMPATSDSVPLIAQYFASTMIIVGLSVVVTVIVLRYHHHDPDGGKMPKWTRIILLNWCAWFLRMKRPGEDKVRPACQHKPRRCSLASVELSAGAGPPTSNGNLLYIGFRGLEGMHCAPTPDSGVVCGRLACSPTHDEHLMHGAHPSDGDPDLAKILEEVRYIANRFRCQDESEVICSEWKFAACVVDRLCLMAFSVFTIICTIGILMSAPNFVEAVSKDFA
Protocol: Agonist activity at rat alpha7 nAChR expressed in HEK293 cells co-expressing human RIC3 assessed as area under current curve at holding potential of -90 mV by whole-cell voltage clamp electrophysiology method
Format: cell-based
Property label: pEC50
In simple prose, pEC50 is minus the logarithm base ten of a concentration in moles per litre.

Lookup: Report measured pEC50; entry is c1cn(-c2cc(NC3=NC[C@@]4(CN5CCC4CC5)O3)ncn2)cn1
Found: 7.00

====

Consider the following compounds and their measured fraction unbound at 4 h, 10 µM readings.
Protocol: Fraction unbound in human plasma at 10 uM after 4 hrs by equilibrium dialysis method
Assay type: ADME, cell-free
Respond numerically, and do not add a unit to the figure.

1. c1ccc2cc(NC3=NC[C@@]4(CN5CCC4CC5)O3)ncc2c1; 0.25

Let us move to another entry and its fraction unbound at 4 h, 10 µM.
Lookup: Report measured fraction unbound at 4 h, 10 µM; entry is c1cn(-c2cc(NC3=NC[C@@]4(CN5CCC4CC5)O3)ncn2)cn1
Found: 0.87
